# System Tested: Monoamine oxidase (Rattus norvegicus, UniProt P19643+P21396)
# Protocol Summary: Kinetic constant (Km) determined in rat brain mitochondria
Property Name: Km (µM)
Write down the numeric answer in µM and omit the unit.

Recorded result, CN1CC=C(c2ccccc2)CC1 , Km: 134

###

# System Tested: Monoamine oxidase (Rattus norvegicus, UniProt P19643+P21396)
# Protocol Summary: Kinetic constant (Km) determined in rat brain mitochondria
The label is TRUE for Km below 40 µM and FALSE for Km equal to or exceeding 40 µM.

Reference set (8 entries):
In [3]: df
Out[3]:
                                   compound  group_label
0             CN1CC=C(/C=C/c2cccc(Br)c2)CC1        FALSE
1  CC(C1=CCN(C)CC1)c1ccccc1 (centres undefined)        FALSE
2                  CN1CC=C(Cc2ccc(I)cc2)CC1         TRUE
3                  CN1CC=C(Cc2ccc(O)cc2)CC1        FALSE
4                CN1CC=C(CCc2cccc(Cl)c2)CC1         TRUE
5  CN1CC=C(C(Oc2ccc(Br)cc2)c2ccccc2)CC1 (centres undefined)        FALSE
6                  Cc1ccc(CC2=CCN(C)CC2)cc1         TRUE
7                  NCc1ccccc1 [BENZYLAMINE]        FALSE

As a next step, examine the compound that follows.
Bench note: check whether COc1ccc(CC2=CCN(C)CC2)cc1 shows Km below 40 µM
TRUE
